Measured EC50 of individual entries
- System: THP-1 cells
- PROCEDURE_SUMMARY: Measurement of IL-1β production, hTRF protocol (second alternative procedure), THP-1 cells
- Assay type: cell-based, human
- STUDY_CONDITIONS: Homo sapiens, THP-1, IL-1β production, human; read-out: NLRP3 hILIB EC50
Record the value in nM, omitting the unit from your answer.

• CC(Cn1cc2c(N)nc3cc(-c4ccn[nH]4)ccc3c2n1)NC(=O)C(C)(C)F (centres unmarked) [Example 273] = 5160
• Nc1nc2cc(-c3cc[nH]n3)ccc2c2cn(CCNC(=O)c3ncccc3Cl)nc12 [Example 92] = 1070
• Nc1nc2cc(-c3cc[nH]n3)ccc2c2nn(C3COCC3O)cc12 (centres unmarked) [Example 323] = 780
• Nc1nc2cc(-c3cc[nH]n3)ccc2c2nn(C3CCCOC3)cc12 (centres unmarked) [Example 312] = 220
• CN(C)CCc1cc2c(N)nc3cc(-c4ccn[nH]4)ccc3c2[nH]1 [Example 153] = 700
• CC(C)(F)C(=O)NCCn1nc2c(N)nc3cc(-c4ccn[nH]4)ccc3c2n1 [Example 157] = 5170
• Cc1cc(Nc2cccc(C(=O)NCCn3cc4c(n3)c(N)nc3cc(-c5cc[nH]n5)ccc34)n2)n(C)n1 [Example 78] = 4710
• COc1cccc(C(=O)NCCn2cc3c(n2)c(N)nc2cc(-c4cc[nH]n4)ccc23)n1 [Example 65] = 350
• Cc1nc(C(=O)NCCn2cc3c(n2)c(N)nc2cc(-c4cc[nH]n4)ccc23)c(C(F)(F)F)o1 [Example 71] = 810
• CC(Cn1ncc2c(N)nc3cc(-c4cc[nH]n4)ccc3c21)NS(C)(=O)=O (centres unmarked) [Example 302] = 3490

Looking for the measured EC50 of Nc1nc2cc(-n3cccn3)ccc2c2cn(CC3CCCCO3)nc12 (centres unmarked) [Example 18] , can you help?
1130

Same question, COCCCn1cc2c(N)nc3cc(-c4cc[nH]n4)ccc3c2n1 [Example 303] this time
210

Same question, COC(=O)c1cccc(C(=O)NCCn2cc3c(n2)c(N)nc2cc(-c4cc[nH]n4)ccc23)n1 [Example 63] this time
1610
